Test system: Y79
Measurement description: Cytotoxicity against human Y79 cells after 72 hrs by Alamar Blue viability assay
Format: functional, cell-based
Condition: Y79, 72 h
Property measured: pIC50
Give bare numbers, as −log10 of the molar value.

// lookup pIC50 for CCCCCCCCCC(=O)[C@@]12O[C@@]13C1=COC(C[C@H](C)O)=CC1=CC(=O)[C@]3(C)OC2=O
5.96

====

The reader will find IC50 measurements below, all made with Caspase-1 (Homo sapiens).
Sequence (P29466 120-297 limits assumed): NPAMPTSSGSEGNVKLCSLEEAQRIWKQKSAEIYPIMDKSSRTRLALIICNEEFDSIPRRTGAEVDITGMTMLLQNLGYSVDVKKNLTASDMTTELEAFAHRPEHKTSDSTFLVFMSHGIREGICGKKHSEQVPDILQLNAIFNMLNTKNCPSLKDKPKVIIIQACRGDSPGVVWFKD
Sequence (P29466 317-404 limits assumed): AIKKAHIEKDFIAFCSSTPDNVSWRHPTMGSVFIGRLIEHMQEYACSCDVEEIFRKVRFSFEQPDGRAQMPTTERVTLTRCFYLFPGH
One number for each entry, in µM.

| Query smiles | Measured on | Property measured | Reported value |
| --- | --- | --- | --- |
| CCCCCCCCCC(=O)[C@@]12O[C@@]13C1=COC(C[C@H](C)O)=CC1=CC(=O)[C@]3(C)OC2=O | Caspase-1 (Homo sapiens) | IC50 | 25 |

Please report the recorded IC50 for CCCCCCCCCC(=O)C1=C2C=C3C=C(C[C@H](C)O)N(CCO)C=C3C(=O)[C@]2(C)OC1=O .
50

====

Measured on: UniProt P08254
Sequence (P08254 whole entry): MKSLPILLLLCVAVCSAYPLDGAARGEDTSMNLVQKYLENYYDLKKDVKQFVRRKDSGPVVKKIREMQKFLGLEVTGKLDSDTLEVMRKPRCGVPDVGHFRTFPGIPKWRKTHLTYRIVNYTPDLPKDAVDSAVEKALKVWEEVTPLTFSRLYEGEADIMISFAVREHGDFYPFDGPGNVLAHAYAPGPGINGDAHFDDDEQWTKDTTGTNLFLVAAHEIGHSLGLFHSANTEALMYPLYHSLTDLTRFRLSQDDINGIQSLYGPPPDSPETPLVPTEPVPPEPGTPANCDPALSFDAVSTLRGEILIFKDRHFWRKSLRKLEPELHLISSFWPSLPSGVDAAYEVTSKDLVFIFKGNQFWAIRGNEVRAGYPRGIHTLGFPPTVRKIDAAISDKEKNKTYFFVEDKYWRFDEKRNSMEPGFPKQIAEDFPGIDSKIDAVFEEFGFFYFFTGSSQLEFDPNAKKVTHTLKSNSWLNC
Property measured: IC50 (µM)
Give bare numbers, in µM.

Item CCCCCCCCCC(=O)C1=C2C=C3C=C(C[C@H](C)O)N(CCO)C=C3C(=O)[C@]2(C)OC1=O has what recorded IC50?
45
